Test Method Notes: Cycloheximide Counterscreen for Small Molecule Inhibitors of Shiga Toxin; also: read at 38.3 µM for the half of the compounds with a filed dose; 0% is about no effect
Stated Conditions: cell reporter, cycloheximide protein synthesis inhibition counterscreen; stronger effect = higher value
In all, about 300,000 compounds went through this assay and about 37,000 (12%) were called active. This is one part of a sample in which actives are shown more often than they occur.
Metric Name: max response (%)
Output spec: scalar in %, unitless text.

These recorded examples may help you get a feel for the data.
>>> test_value("CCCCN(CC)C(=O)c1ccccc1Oc1ccccc1")
-1.52
>>> test_value("Cc1cc(C(=O)OCC(=O)Nc2nccs2)c2ccccc2n1")
-4.23
>>> test_value("CCCCOC(=O)Nc1nccs1")
18.8

# input Recorded max response of COc1ccc(Br)cc1C(=O)NC(=S)Nc1cc(-c2nc3ccccc3[nH]2)ccc1C , please.
# output 24.4

# input Fill blank: measured max response of the molecule NC(=O)c1ccsc1NC(=O)c1ccco1 is ____.
# output 12.2

# input Reported max response for NC(=O)c1cc(S(=O)(=O)NCCCc2ccco2)cs1 : what is it?
# output -2.26
